# SYSTEM_UNDER_TEST: Gag-Pol polyprotein (Human immunodeficiency virus type 1 group M subtype B (isolate HXB2)) (UniProt P04585)
# ASSAY_METHOD_TEXT: RNase H inhibition, HIV 1 Gag Pol polyprotein, FRET biochemical assay, screening (AID 372)
# CONDITION: HIV-1 RT RNase H, FRET RNA/DNA substrate fluorescence; at 10 µM; hits give high values
Among all 100,000 compounds or so, about 770 (0.77%) were called active. What follows is part of a selection rich in actives, with near analogues and random picks from the rest.
Class (required): determined from inhibition; valid ranges are bottom: < 6%; middle: ≥ 6% and < 10%; top: ≥ 10%

COMPOUND	LABEL
CCc1ccccc1N/C=C(\C#N)c1nc(-c2ccc(Cl)cc2)cs1	middle
CC(=O)C1=C(Nc2ccc(Br)cc2)CC(C)(O)C(C(C)=O)C1c1ccc([N+](=O)[O-])cc1 (stereo not given)	bottom
COc1cc(/C=N/N2C(=O)C3C4C=CC(CC4)C3C2=O)cc(I)c1O (stereo not given)	bottom

State the class of the compound shown: CCN(CC)c1ccc(NS(=O)(=O)c2ccc(Cl)cc2)cc1
top

State the class of the compound shown: O=C(O)C1Nc2c(I)cccc2C2C=CCC12 (stereo not given)
top

State the class of the compound shown: COC(=O)c1sc(NC(=O)C2CC3CCC2C3)c(C(N)=O)c1C (stereo not given)
top

Data provenance: PubChem BioAssay AID372
